# Tested on: Adjuvant-induced Arthritis in Rat
# assay_summary: Adjuvant-induced Arthritis in rat
# Type: in vivo, rat (female Hla:(SD) BR)
# setup_conditions: oral, at 50 mg/kg, n.s.
test_readout: Inhibition of Adjuvant Arthritis

Please review the entries below; each comes with its answer.
>>> observed("Cc1cccc(NC(=O)OCC(C)C)c1C(=O)O")
"0%"
>>> observed("CCOC(=O)Nc1cc(OC)c(OC)cc1C(=O)O")
"0%"
>>> observed("CCOC(=O)Nc1cccc(C)c1C(=O)O")
"30%"

Look up Inhibition of Adjuvant Arthritis for this compound: Cc1cccc(N)c1C(=O)O [2-Amino-6-methylbenzoic acid, 2-amino-6-methyl-benzoic acid, reference compound]
0%
